Where do the numbers come from? From ChEMBL document CHEMBL4346653.

# Species: Homo sapiens
# test.name: Selectivity index, ratio of Ki for displacement of [3H]PSB-11 from recombinant human A3 adenosine receptor expressed in CHO cell membranes to Ki for displacement of [3H]PSB-603 from recombinant human A2B adenosine receptor expressed in CHO cell membranes
Kindly state Ratio Ki for each of the entries shown.

Challenge: Query: Ratio Ki; subject: "CCCn1c(=O)[nH]c2nc(-c3ccc(S(=O)(=O)N4CCN(c5ccc(I)cc5)CC4)cc3)[nH]c2c1=O"
Response given: > 6290

Challenge: Check "CCCn1c(=O)[nH]c2nc(-c3ccc(S(=O)(=O)N4CCN(Cc5ccc(C(=O)O)cc5)CC4)cc3)[nH]c2c1=O" too.
Response given: 10

Challenge: Check "CCCn1c(=O)[nH]c2nc(-c3ccc(S(=O)(=O)N4CCN(c5cccc(F)c5)CC4)cc3)[nH]c2c1=O" too.
Response given: > 1580

Challenge: Check "CCCn1c(=O)[nH]c2nc(-c3ccc(S(=O)(=O)N4CCN(c5cccc(Br)c5)CC4)cc3)[nH]c2c1=O" too.
Response given: > 4270

Challenge: Check "CCCn1c(=O)[nH]c2nc(-c3ccc(S(=O)(=O)N4CCN(c5ccc(OC)c(F)c5)CC4)cc3)[nH]c2c1=O" too.
Response given: > 800

Challenge: Check "CCCn1c(=O)[nH]c2nc(-c3ccc(S(=O)(=O)N4CCN(c5ccc(C)cc5)CC4)cc3)[nH]c2c1=O" too.
Response given: > 1420

Challenge: Check "CCCn1c(=O)[nH]c2nc(-c3ccc(S(=O)(=O)N4CCN(c5ccc(Br)cc5)CC4)cc3)[nH]c2c1=O" too.
Response given: > 12000

Challenge: Check "CCCn1c(=O)c2[nH]c(-c3ccc(S(=O)(=O)N4CCN(c5ccc(Cl)cc5)CC4)cc3)nc2n(C)c1=O" too.
Response given: > 520
